System: Streptococcus pyogenes
PROCEDURE DETAILS: Experimental bacterial infection in mice, ED50
Assay type: in vivo
CONDITION PARAMETERS: Streptococcus pyogenes, po, two doses, dose protecting 50% of animals, read-out: Oral ED50
ENDPOINT: ED50
Put your answer as a value accompanied by its unit after it.

Known results for molecules:
{"columns": ["ENTRY SMILES", "ED50"],
 "data": [
  ["CC[C@H]1OC(=O)[C@H](C)[C@@H](O[C@H]2C[C@@](C)(OC)[C@@H](O)[C@H](C)O2)[C@H](C)[C@@H](O[C@@H]2O[C@H](C)C[C@H](N(C)C)[C@H]2O)[C@](C)(O)C[C@@H](C)[C@H]2[C@H](C)[C@@H](OCN2C2CCCC2)[C@]1(C)O", "10.2 mg/kg"],
  ["CC[C@H]1OC(=O)[C@H](C)[C@@H](O[C@H]2C[C@@](C)(OC)[C@@H](O)[C@H](C)O2)[C@H](C)[C@@H](O[C@@H]2O[C@H](C)C[C@H](N(C)C)[C@H]2O)[C@](C)(O)C[C@@H](C)[C@H](N(C)C)[C@H](C)[C@@H](O)[C@]1(C)O", "21.9 mg/kg"]
]}

Now let's try a different one.
Task: ED50 lookup needed for CC[C@H]1OC(=O)[C@H](C)[C@@H](O[C@H]2C[C@@](C)(OC)[C@@H](O)[C@H](C)O2)[C@H](C)[C@@H](O[C@@H]2O[C@H](C)C[C@H](N(C)C)[C@H]2O)[C@](C)(O)C[C@@H](C)[C@H](NCCCC#N)[C@H](C)[C@@H](O)[C@]1(C)O , thanks.
Output: 21.1 mg/kg

###

MIC: recorded values
Tested on: Staphylococcus aureus X400
PROCEDURE DETAILS: MIC, standard agar-dilution assay
Format: cell-based
CONDITION PARAMETERS: Staphylococcus aureus X400, Methicillin-resistant strain, inducibly-resistant to erythromycin; read-out: MIC
Hi! Could you send only the number? It should be in mg/L, unit omitted.

{"columns": ["ENTRY SMILES", "MIC (mg/L)"],
 "data": [
  ["CCCCC/C=C/CCCN[C@@H]1[C@H](C)[C@@H](O)[C@](C)(O)[C@@H](CC)OC(=O)[C@H](C)[C@@H](O[C@H]2C[C@@](C)(OC)[C@@H](O)[C@H](C)O2)[C@H](C)[C@@H](O[C@@H]2O[C@H](C)C[C@H](N(C)C)[C@H]2O)[C@](C)(O)C[C@H]1C", 16]
]}

Field: next compound
Task: Please report the recorded MIC for CC[C@H]1OC(=O)[C@H](C)[C@@H](O[C@H]2C[C@@](C)(OC)[C@@H](O)[C@H](C)O2)[C@H](C)[C@@H](O[C@@H]2O[C@H](C)C[C@H](N(C)C)[C@H]2O)[C@](C)(O)C[C@@H](C)[C@H]2[C@H](C)[C@@H](OCN2Cc2ccccc2)[C@]1(C)O .
Output: 128

###

Test system: Streptococcus pneumoniae
PROCEDURE DETAILS: Experimental bacterial infection in mice, ED50
Assay type: in vivo
CONDITION PARAMETERS: Streptococcus pneumoniae, po, two doses, dose protecting 50% of animals, read-out: Oral ED50
ENDPOINT: ED50 (mg/kg)
Write the answer as a number in mg/kg, unit excluded.

{"columns": ["COMPOUND", "RECORDED MEASUREMENT"],
 "data": [
  ["CC[C@H]1OC(=O)[C@H](C)[C@@H](O[C@H]2C[C@@](C)(OC)[C@@H](O)[C@H](C)O2)[C@H](C)[C@@H](O[C@@H]2O[C@H](C)C[C@H](N(C)C)[C@H]2O)[C@](C)(O)C[C@@H](C)[C@H](NCCOC)[C@H](C)[C@@H](O)[C@]1(C)O", 18.7],
  ["CC[C@H]1OC(=O)[C@H](C)[C@@H](O[C@H]2C[C@@](C)(OC)[C@@H](O)[C@H](C)O2)[C@H](C)[C@@H](O[C@@H]2O[C@H](C)C[C@H](N(C)C)[C@H]2O)[C@](C)(O)C[C@@H](C)[C@H](NC)[C@H](C)[C@@H](O)[C@]1(C)O", 35.4],
  ["CCCCCN[C@@H]1[C@H](C)[C@@H](O)[C@](C)(O)[C@@H](CC)OC(=O)[C@H](C)[C@@H](O[C@H]2C[C@@](C)(OC)[C@@H](O)[C@H](C)O2)[C@H](C)[C@@H](O[C@@H]2O[C@H](C)C[C@H](N(C)C)[C@H]2O)[C@](C)(O)C[C@H]1C", 13.6],
  ["CC[C@H]1OC(=O)[C@H](C)[C@@H](O[C@H]2C[C@@](C)(OC)[C@@H](O)[C@H](C)O2)[C@H](C)[C@@H](O[C@@H]2O[C@H](C)C[C@H](N(C)C)[C@H]2O)[C@](C)(O)C[C@@H](C)[C@H](NCCOCCOC)[C@H](C)[C@@H](O)[C@]1(C)O", 21.8]
]}

Shift focus to the following entry.
Task: Request the reported ED50 associated with CCN[C@@H]1[C@H](C)[C@@H](O)[C@](C)(O)[C@@H](CC)OC(=O)[C@H](C)[C@@H](O[C@H]2C[C@@](C)(OC)[C@@H](O)[C@H](C)O2)[C@H](C)[C@@H](O[C@@H]2O[C@H](C)C[C@H](N(C)C)[C@H]2O)[C@](C)(O)C[C@H]1C [Compound 2, (9S)-9-Deoxo-9-(ethylamino)erythromycin]
Output: 13.4

###

System: Escherichia coli EC14
PROCEDURE DETAILS: MIC, standard agar-dilution assay
Type: cell-based
CONDITION PARAMETERS: read-out: MIC
ENDPOINT: MIC (mg/L)
// return numeric value only (unit: mg/L, not printed)

Please review the following examples before continuing.
{"columns": ["ENTRY SMILES", "ENDPOINT", "UNIT OF MEASUREMENT", "RECORDED MEASUREMENT"],
 "data": [
  ["CC[C@H]1OC(=O)[C@H](C)[C@@H](O[C@H]2C[C@@](C)(OC)[C@@H](O)[C@H](C)O2)[C@H](C)[C@@H](O[C@@H]2O[C@H](C)C[C@H](N(C)C)[C@H]2O)[C@](C)(O)C[C@@H](C)[C@H](NCCCSC)[C@H](C)[C@@H](O)[C@]1(C)O", "MIC", "mg/L", 128],
  ["CCCCCCN[C@@H]1[C@H](C)[C@@H](O)[C@](C)(O)[C@@H](CC)OC(=O)[C@H](C)[C@@H](O[C@H]2C[C@@](C)(OC)[C@@H](O)[C@H](C)O2)[C@H](C)[C@@H](O[C@@H]2O[C@H](C)C[C@H](N(C)C)[C@H]2O)[C@](C)(O)C[C@H]1C", "MIC", "mg/L", 64],
  ["CC[C@H]1OC(=O)[C@H](C)[C@@H](O[C@H]2C[C@@](C)(OC)[C@@H](O)[C@H](C)O2)[C@H](C)[C@@H](O[C@@H]2O[C@H](C)C[C@H](N(C)C)[C@H]2O)[C@](C)(O)C[C@@H](C)[C@H]2[C@H](C)[C@@H](OCN2C(C)C)[C@]1(C)O", "MIC", "mg/L", 32]
]}

Here is another compound to look at.
Task: Item CC[C@H]1OC(=O)[C@H](C)[C@@H](O[C@H]2C[C@@](C)(OC)[C@@H](O)[C@H](C)O2)[C@H](C)[C@@H](O[C@@H]2O[C@H](C)C[C@H](N(C)C)[C@H]2O)[C@](C)(O)C[C@@H](C)[C@H](NCC2CCCCCCC2)[C@H](C)[C@@H](O)[C@]1(C)O with Escherichia coli EC14 - MIC?
Output: 64

###

System: Streptococcus pyogenes
PROCEDURE DETAILS: Experimental bacterial infection in mice, ED50
Format: in vivo
CONDITION PARAMETERS: Streptococcus pyogenes, po, two doses, dose protecting 50% of animals, read-out: Oral ED50
Labelling: ED50 reported below 20 mg/kg becomes Satisfied; at or above becomes Not satisfied.

Field: example entries. Status: answers known.
{"columns": ["COMPOUND", "CLASS"],
 "data": [
  ["CCOC(=O)C1CC1CN[C@@H]1[C@H](C)[C@@H](O)[C@](C)(O)[C@@H](CC)OC(=O)[C@H](C)[C@@H](O[C@H]2C[C@@](C)(OC)[C@@H](O)[C@H](C)O2)[C@H](C)[C@@H](O[C@@H]2O[C@H](C)C[C@H](N(C)C)[C@H]2O)[C@](C)(O)C[C@H]1C (stereo partly shown) [Compound 27]", "Not satisfied"],
  ["CCN[C@@H]1[C@H](C)[C@@H](O)[C@](C)(O)[C@@H](CC)OC(=O)[C@H](C)[C@@H](O[C@H]2C[C@@](C)(OC)[C@@H](O)[C@H](C)O2)[C@H](C)[C@@H](O[C@@H]2O[C@H](C)C[C@H](N(C)C)[C@H]2O)[C@](C)(O)C[C@H]1C [Compound 2, (9S)-9-Deoxo-9-(ethylamino)erythromycin]", "Satisfied"],
  ["CCCCCCN[C@@H]1[C@H](C)[C@@H](O)[C@](C)(O)[C@@H](CC)OC(=O)[C@H](C)[C@@H](O[C@H]2C[C@@](C)(OC)[C@@H](O)[C@H](C)O2)[C@H](C)[C@@H](O[C@@H]2O[C@H](C)C[C@H](N(C)C)[C@H]2O)[C@](C)(O)C[C@H]1C [Compound 6, 9-Deoxo-9-(n-hexylamino)erythromycin]", "Satisfied"],
  ["CC[C@H]1OC(=O)[C@H](C)[C@@H](O[C@H]2C[C@@](C)(OC)[C@@H](O)[C@H](C)O2)[C@H](C)[C@@H](O[C@@H]2O[C@H](C)C[C@H](N(C)C)[C@H]2O)[C@](C)(O)C[C@@H](C)[C@H](NCCOCCOC)[C@H](C)[C@@H](O)[C@H]1C [Compound 49]", "Not satisfied"],
  ["CCCCN[C@@H]1[C@H](C)[C@@H](O)[C@](C)(O)[C@@H](CC)OC(=O)[C@H](C)[C@@H](O[C@H]2C[C@@](C)(OC)[C@@H](O)[C@H](C)O2)[C@H](C)[C@@H](O[C@@H]2O[C@H](C)C[C@H](N(C)C)[C@H]2O)[C@](C)(O)C[C@H]1C [Compound 4, 9-Deoxo-9-(n-butylamino)erythromycin]", "Satisfied"],
  ["CCCN[C@@H]1[C@H](C)[C@@H](O)[C@@H](C)[C@@H](CC)OC(=O)[C@H](C)[C@@H](O[C@H]2C[C@@](C)(OC)[C@@H](O)[C@H](C)O2)[C@H](C)[C@@H](O[C@@H]2O[C@H](C)C[C@H](N(C)C)[C@H]2O)[C@](C)(O)C[C@H]1C [Compound 38]", "Not satisfied"]
]}

Turning to the following compound.
Task: Is 20 mg/kg strictly greater than the compound's reported ED50? compound: CC[C@H]1OC(=O)[C@H](C)[C@@H](O[C@H]2C[C@@](C)(OC)[C@@H](O)[C@H](C)O2)[C@H](C)[C@@H](O[C@@H]2O[C@H](C)C[C@H](N(C)C)[C@H]2O)[C@](C)(O)C[C@@H](C)[C@H](NCCCSC)[C@H](C)[C@@H](O)[C@]1(C)O [Compound 26]
Output: Satisfied
